protocolDescription: Inhalation exposure: Compound A concentration in lung, plasma and BALF (Example 2)
Type: in vivo, BALB/c mice
conditionDescription: male, BALB/c, inhaled or intranasal, 0.27 mg/kg; mouse BALF, aerosol conc. 0.07 mg/L; read-out: AUC(0-24)
assayEndpoint: AUC(0-t) (ng·h/mL)
Report the value in ng·h/mL with no unit label.

Given the compound `Nc1nc(N)c2nc(-c3cccc(O)c3)c(-c3cccc(O)c3)nc2n1` , write its reported AUC(0-t).
18100

----------
protocolDescription: Inhalation exposure: Compound A concentration in lung, plasma and BALF (Example 2)
Format: in vivo, BALB/c mice
conditionDescription: male, BALB/c, mouse, BALF, inhaled; mice, 30 min inhalation, nominal aerosol 0.07 mg/L, 2 h; read-out: Compound A concentration BALF
Procedure: A series of compositions for pulmonary delivery were prepared by making a 20% suspension of compound A in a 5% tyloxapol solution in water. […] The actual concentrations of test article in the exposure atmospheres were determined by chemical analysis of timed filter samples collected directly from a nose-only exposure port during exposure. […] The filters and impactor stages were analyzed chemically by LRRI and are described below.
assayEndpoint: concentration at 2 h (ng/mL)
Report the value in ng/mL with no unit label.

Given the compound `Nc1nc(N)c2nc(-c3cccc(O)c3)c(-c3cccc(O)c3)nc2n1` , write its reported concentration at 2 h.
930

----------
protocolDescription: Inhalation exposure: Compound A concentration in lung, plasma and BALF (Example 2)
Type: in vivo, BALB/c mice
conditionDescription: male, BALB/c, mouse, lung, inhaled; mice, 30 min inhalation, nominal aerosol 0.02 mg/L, 4 h; read-out: Compound A concentration Lung
assayEndpoint: concentration at 4 h (ng/g)
Report the value in ng/g with no unit label.

Given the molecule Nc1nc(N)c2nc(-c3cccc(O)c3)c(-c3cccc(O)c3)nc2n1 [Compound A] , write its reported concentration at 4 h.
10500

----------
protocolDescription: Inhalation exposure: Compound A concentration in lung, plasma and BALF (Example 2)
Format: in vivo, BALB/c mice
conditionDescription: male, BALB/c, mouse, lung, inhaled; mice, 30 min inhalation, nominal aerosol 0.07 mg/L, 2 h; read-out: Compound A concentration Lung
assayEndpoint: concentration at 2 h
Reply with a number, then the unit it belongs to.

Given the compound Nc1nc(N)c2nc(-c3cccc(O)c3)c(-c3cccc(O)c3)nc2n1 [Compound A] , write its reported concentration at 2 h.
22700 ng/g

----------
protocolDescription: Inhalation exposure: Compound A concentration in lung, plasma and BALF (Example 2)
Format: in vivo, BALB/c mice
conditionDescription: male, BALB/c, mouse, BALF, inhaled; mice, 30 min inhalation, nominal aerosol 0.07 mg/L, 0.25 h; read-out: Compound A concentration BALF
assayEndpoint: concentration at 0.25 h (ng/mL)
Report the value in ng/mL with no unit label.

Given the compound `Nc1nc(N)c2nc(-c3cccc(O)c3)c(-c3cccc(O)c3)nc2n1` , write its reported concentration at 0.25 h.
1190

----------
protocolDescription: Inhalation exposure: Compound A concentration in lung, plasma and BALF (Example 2)
Type: in vivo, BALB/c mice
conditionDescription: male, BALB/c, mouse, lung, inhaled; mice, 30 min inhalation, nominal aerosol 0.07 mg/L, 24 h; read-out: Compound A concentration Lung
assayEndpoint: concentration at 24 h (ng/g)
Report the value in ng/g with no unit label.

Given the molecule `Nc1nc(N)c2nc(-c3cccc(O)c3)c(-c3cccc(O)c3)nc2n1` , write its reported concentration at 24 h.
10800
